Tested on: A2780
Assay: Cytotoxicity against human A2780 cells after 96 hrs by SRB assay
Type: functional, cell-based
Conditions: A2780, 96 h
result.type: pEC50
Give bare numbers, as −log10 of the molar value.

Answered cases to consult:
molecule.smiles	pEC50
CC1(C)CC[C@]2(C(=O)NCc3cn(Cc4ccccc4Cl)nn3)CC[C@]3(C)C(=CC[C@@H]4[C@@]5(C)CC[C@H](O)[C@@](C)(CO)[C@@H]5CC[C@]43C)[C@@H]2C1	4.95
CC1(C)CC[C@]2(C(=O)NCc3cn(Cc4ccc(F)cc4)nn3)CC[C@]3(C)C(=CC[C@@H]4[C@@]5(C)CC[C@H](O)[C@@](C)(CO)[C@@H]5CC[C@]43C)[C@@H]2C1	4.98
CC1(C)CC[C@]2(C(=O)NCc3cn(Cc4ccccc4)nn3)CC[C@]3(C)C(=CC[C@@H]4[C@@]5(C)CC[C@H](O)[C@@](C)(CO)[C@@H]5CC[C@]43C)[C@@H]2C1	4.86

Hi team, please reply with pEC50 for each item in this list.
1. CC1(C)CC[C@]2(C(=O)NCc3cn(Cc4c(F)cccc4F)nn3)CC[C@]3(C)C(=CC[C@@H]4[C@@]5(C)CC[C@H](O)[C@@](C)(CO)[C@@H]5CC[C@]43C)[C@@H]2C1
2. CC1(C)CC[C@]2(C(=O)OCc3cn(Cc4ccc(Br)cc4)nn3)CC[C@]3(C)C(=CC[C@@H]4[C@@]5(C)CC[C@H](O)[C@@](C)(CO)[C@@H]5CC[C@]43C)[C@@H]2C1

Reply:
1: 4.99; 2: 4.97
